This collection of values is drawn from paper PMC8325119.

Measured log10 IC50 by item
- System: HELA cell line
- protocol_description: SRB cytotoxicity assay, HELA cervical cancer cell line
- test_settings: Homo sapiens, HeLa, 72 h, read-out: Cytotoxicity IC50 value, HELA cell line, SRB, 72 h, 0.1-200 μg/mL range, mean ± SD; NI = lack of cytotoxicity in range
Units before log transform: µM; reported quantity: IC50; transform: log10.

Sample records with log10 IC50:
INSERT INTO results (compound, observed) VALUES
  ('COc1ccccc1Nc1c(F)cc2c(=O)c(C(=O)O)cn(C3CC3)c2c1N', 1.61),
  ('COc1ccc(Nc2c(F)cc3c(=O)c(C(=O)O)cn(C4CC4)c3c2[N+](=O)[O-])cc1', 2.30),
  ('CCc1ccc(-n2nnc3c4c(cc(F)c32)c(=O)c(C(=O)O)cn4C2CC2)cc1', 3.06),
  ('CCOC(=O)c1cn(C2CC2)c2c([N+](=O)[O-])c(Cl)c(F)cc2c1=O', 2.12),
  ('CCn1cc(C(=O)O)c(=O)c2cc(F)c3c(nnn3-c3ccc(OC)cc3OC)c21 [13c]', 2.64),
  ('CCn1cc(C(=O)O)c(=O)c2cc(F)c(Nc3cccc(OC)c3)c(N)c21 [12b]', 2.35);

input: Name the recorded log10 IC50 of the item O=C(O)c1cn(C2CC2)c2c([N+](=O)[O-])c(Cl)c(F)cc2c1=O in your answer.
output: 1.30

----------
- Test system: HELA cell line
- protocol_description: SRB cytotoxicity assay, HELA cervical cancer cell line
- test_settings: Homo sapiens, HeLa, 72 h, read-out: Cytotoxicity IC50 value, HELA cell line, SRB, 72 h, 0.1-200 μg/mL range, mean ± SD; NI = lack of cytotoxicity in range
compounds and their reported IC50
Note: unit µM is implicit; provide only the numeric part.

These recorded examples may help you get a feel for the data.
INSERT INTO assay_data (compound, system, property, observed) VALUES
  ('CCCCCCc1ccc(-n2nnc3c4c(cc(F)c32)c(=O)c(C(=O)O)cn4C2CC2)cc1 [5f]', 'HELA cell line', 'IC50', 3.59),
  ('CCCCc1ccc(-n2nnc3c4c(cc(F)c32)c(=O)c(C(=O)O)cn4C2CC2)cc1 [5e]', 'HELA cell line', 'IC50', 364),
  ('COc1ccc(-n2nnc3c4c(cc(F)c32)c(=O)c(C(=O)O)cn4C2CC2)cc1 [5c]', 'HELA cell line', 'IC50', 454),
  ('CCOC(=O)c1cn(C2CC2)c2c([N+](=O)[O-])c(Nc3ccc(F)cc3)c(F)cc2c1=O [2H]', 'HELA cell line', 'IC50', 1510),
  ('O=C(O)c1cn(C2CC2)c2c(cc(F)c3c2nnn3C2CCCCC2)c1=O [9a]', 'HELA cell line', 'IC50', 74.8),
  ('CCn1cc(C(=O)O)c(=O)c2cc(F)c(Nc3ccc(OC)cc3OC)c(N)c21 [12c]', 'HELA cell line', 'IC50', 38.8);

input: Note IC50 for the compound shown: CCCCCCc1ccc(Nc2c(F)cc3c(=O)c(C(=O)O)cn(C4CC4)c3c2[N+](=O)[O-])cc1 [3f]
output: 7.44

input: Respond only with IC50 recorded for O=C(O)c1cn(C2CC2)c2c([N+](=O)[O-])c(NC3CCCCC3)c(F)cc2c1=O [7a]
output: 0.4
